B1: TPR t1 (parent)
chain: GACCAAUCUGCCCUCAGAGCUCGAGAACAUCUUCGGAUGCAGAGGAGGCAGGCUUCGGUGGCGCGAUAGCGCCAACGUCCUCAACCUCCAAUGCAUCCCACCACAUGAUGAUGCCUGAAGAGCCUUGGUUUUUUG

Variants of: B1
Experiment: polymerase ribozyme fitness, log enrichment relative to wild type (log ratio); higher = more active; in vitro selection for triplet polymerase activity
TEST_READOUT: polymerase ribozyme fitness (log ratio)

Here's what some known entries look like.
| RESIDUE_CHANGE | TEST_READOUT | RESULT |
| --- | --- | --- |
| G71C G93C G127A | polymerase ribozyme fitness (log ratio) | -2.95 |
| G58A A90C | polymerase ribozyme fitness (log ratio) | -1.28 |
| C12U C56A U92G C101G A121G | polymerase ribozyme fitness (log ratio) | -3.35 |
| C4G G10U A18G U59G A83C U87A | polymerase ribozyme fitness (log ratio) | -4.53 |
| A27G A46G C89G | polymerase ribozyme fitness (log ratio) | -4.52 |

Lab note: next variant to report on.
Would you mind telling me what polymerase ribozyme fitness (log ratio) value was observed for A27G C40U G61C ? -4.06
